Where these numbers come from: patent US11634451B2

System: OneTaq polymerase
Experiment notes: PCR-based screen and amplification of DNA containing unnatural base pairs, OneTaq (Example 1)
Type: biochemical
Setup conditions: OneTaq, 1 min Extension, 52 cycles, D6 template
For each record, write down the corresponding Retention, %.
All answers are understood in %, so give the number only.

Tell me its Retention, % given COc1cc2ccccc2cc1[C@H]1C[C@H](O)[C@@H](COP(=O)(O)OP(=O)(O)OP(=O)(O)O)O1.O=P(O)(O)OP(=O)(O)OP(=O)(O)OC[C@H]1O[C@@H](n2ccc3ccsc3c2=S)C[C@@H]1O [TPT3-NaM] as the entry.
91.2

Tell me its Retention, % given COc1cc(I)c(F)cc1[C@H]1C[C@H](O)[C@@H](COP(=O)(O)OP(=O)(O)OP(=O)(O)O)O1.O=P(O)(O)OP(=O)(O)OP(=O)(O)OC[C@H]1O[C@@H](n2cc(F)c3ccsc3c2=S)C[C@@H]1O [FTPT3-FIMO] as the entry.
86

Tell me its Retention, % given COc1cc(I)ccc1[C@H]1C[C@H](O)[C@@H](COP(=O)(O)OP(=O)(O)OP(=O)(O)O)O1.O=P(O)(O)OP(=O)(O)OP(=O)(O)OC[C@H]1O[C@@H](n2cc(F)c3ccsc3c2=S)C[C@@H]1O [FTPT3-IMO] as the entry.
76.8

Tell me its Retention, % given COc1cc(I)c(F)cc1[C@H]1C[C@H](O)[C@@H](COP(=O)(O)OP(=O)(O)OP(=O)(O)O)O1.O=P(O)(O)OP(=O)(O)OP(=O)(O)OC[C@H]1O[C@@H](n2ccc3ccsc3c2=S)C[C@@H]1O [TPT3-FIMO] as the entry.
84.7

Tell me its Retention, % given C#Cc1cc(OC)c([C@H]2C[C@H](O)[C@@H](COP(=O)(O)OP(=O)(O)OP(=O)(O)O)O2)cc1F.O=P(O)(O)OP(=O)(O)OP(=O)(O)OC[C@H]1O[C@@H](n2ccc3ccsc3c2=S)C[C@@H]1O [TPT3-FEMO] as the entry.
82.2

Tell me its Retention, % given C#Cc1cc(OC)c([C@H]2C[C@H](O)[C@@H](COP(=O)(O)OP(=O)(O)OP(=O)(O)O)O2)cc1F.O=P(O)(O)OP(=O)(O)OP(=O)(O)OC[C@H]1O[C@@H](n2cc(F)c3ccsc3c2=S)C[C@@H]1O [FTPT3-FEMO] as the entry.
72.4

====

For each record, write down the corresponding Fidelity per Doubling, %.
System: OneTaq polymerase
Experiment notes: PCR-based screen and amplification of DNA containing unnatural base pairs, OneTaq (Example 1)
Assay type: biochemical
Setup conditions: OneTaq, 1 min Extension, 52 cycles, D6 template
Description: […] Specific PCR assay conditions. […] After elution with 20 μl of water, the DNA concentration was measured using fluorescent dye binding (Quant-iT dsDNA HS Assay kit, Life Technologies), and purified amplicons were sequenced in triplicate with both Primer1 and Primer2 to determine UBP retention and thus amplification fidelity. […]
All answers are understood in %, so give the number only.

Fill in: Fidelity per Doubling, % on OneTaq polymerase, entry "COc1cc(I)c(F)cc1[C@H]1C[C@H](O)[C@@H](COP(=O)(O)OP(=O)(O)OP(=O)(O)O)O1.O=P(O)(O)OP(=O)(O)OP(=O)(O)OC[C@H]1O[C@@H](n2cc(F)c3ccsc3c2=S)C[C@@H]1O"
99.65

Fill in: Fidelity per Doubling, % on OneTaq polymerase, entry "COc1cc2ccccc2cc1[C@H]1C[C@H](O)[C@@H](COP(=O)(O)OP(=O)(O)OP(=O)(O)O)O1.O=P(O)(O)OP(=O)(O)OP(=O)(O)OC[C@H]1O[C@@H](n2cc(F)c3ccsc3c2=S)C[C@@H]1O"
99.76

Fill in: Fidelity per Doubling, % on OneTaq polymerase, entry "C#Cc1cc(OC)c([C@H]2C[C@H](O)[C@@H](COP(=O)(O)OP(=O)(O)OP(=O)(O)O)O2)cc1F.O=P(O)(O)OP(=O)(O)OP(=O)(O)OC[C@H]1O[C@@H](n2cc(F)c3ccsc3c2=S)C[C@@H]1O"
99.24

Fill in: Fidelity per Doubling, % on OneTaq polymerase, entry "COc1cc(I)ccc1[C@H]1C[C@H](O)[C@@H](COP(=O)(O)OP(=O)(O)OP(=O)(O)O)O1.O=P(O)(O)OP(=O)(O)OP(=O)(O)OC[C@H]1O[C@@H](n2cc(F)c3ccsc3c2=S)C[C@@H]1O"
99.38

Fill in: Fidelity per Doubling, % on OneTaq polymerase, entry COc1cc2ccccc2cc1[C@H]1C[C@H](O)[C@@H](COP(=O)(O)OP(=O)(O)OP(=O)(O)O)O1.Cc1ccc2c(=S)n([C@H]3C[C@H](O)[C@@H](COP(=O)(O)OP(=O)(O)OP(=O)(O)O)O3)ccc2c1 [5SICS-NaM, reference compound]
99.00

Fill in: Fidelity per Doubling, % on OneTaq polymerase, entry "COc1cc(I)c(F)cc1[C@H]1C[C@H](O)[C@@H](COP(=O)(O)OP(=O)(O)OP(=O)(O)O)O1.O=P(O)(O)OP(=O)(O)OP(=O)(O)OC[C@H]1O[C@@H](n2ccc3ccsc3c2=S)C[C@@H]1O"
99.61

Fill in: Fidelity per Doubling, % on OneTaq polymerase, entry "COc1cc2ccccc2cc1[C@H]1C[C@H](O)[C@@H](COP(=O)(O)OP(=O)(O)OP(=O)(O)O)O1.O=P(O)(O)OP(=O)(O)OP(=O)(O)OC[C@H]1O[C@@H](n2ccc3ccsc3c2=S)C[C@@H]1O"
99.79

Fill in: Fidelity per Doubling, % on OneTaq polymerase, entry "C#Cc1cc(OC)c([C@H]2C[C@H](O)[C@@H](COP(=O)(O)OP(=O)(O)OP(=O)(O)O)O2)cc1F.O=P(O)(O)OP(=O)(O)OP(=O)(O)OC[C@H]1O[C@@H](n2ccc3ccsc3c2=S)C[C@@H]1O"
99.55
